Values were extracted from patent US12466813B2.

- Experimental System: RING1B-BMI1 (Homo sapiens, UniProt Q99496)
- Sequence (Q99496 1-336): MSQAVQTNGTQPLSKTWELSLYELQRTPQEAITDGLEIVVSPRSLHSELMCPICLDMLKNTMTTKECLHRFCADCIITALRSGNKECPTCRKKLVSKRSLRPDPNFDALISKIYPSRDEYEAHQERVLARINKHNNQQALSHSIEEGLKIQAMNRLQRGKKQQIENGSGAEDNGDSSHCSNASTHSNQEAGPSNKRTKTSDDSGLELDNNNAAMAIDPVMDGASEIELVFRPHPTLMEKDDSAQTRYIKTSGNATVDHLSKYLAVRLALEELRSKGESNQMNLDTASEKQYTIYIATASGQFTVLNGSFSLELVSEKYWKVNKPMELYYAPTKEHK
- Sequence (P35226 1-326 partner): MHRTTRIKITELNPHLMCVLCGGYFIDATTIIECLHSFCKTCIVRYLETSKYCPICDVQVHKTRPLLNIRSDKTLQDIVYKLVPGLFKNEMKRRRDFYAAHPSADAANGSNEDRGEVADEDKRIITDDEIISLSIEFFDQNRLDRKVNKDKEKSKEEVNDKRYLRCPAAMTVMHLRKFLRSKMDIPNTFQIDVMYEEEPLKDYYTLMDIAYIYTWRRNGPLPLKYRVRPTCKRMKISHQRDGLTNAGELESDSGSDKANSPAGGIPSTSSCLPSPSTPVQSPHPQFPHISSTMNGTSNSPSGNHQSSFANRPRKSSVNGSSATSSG
- Test Method Notes: KD classes of Table A (direct binding to Ring1B-Bmi1)
- Applied Conditions: class given in Table A
Recorded Metric: Kd

Data point: CCc1c(-c2cccc3[nH]ccc23)[nH]c(C(=O)O)c1C1CCCCC1 [compound 102] ; Kd = > 100 µM

// field: Kd; key: COCCC(=O)NCCc1c[nH]c2cc(F)cc(-c3[nH]c(C(=O)O)c(-c4c(Cl)ccc5[nH]ccc45)c3C(C)C)c12 [compound 72] ; value = < 20 µM

Consider CC(C)c1c(-c2cc(F)cc3[nH]ccc23)[nH]c(C(=O)O)c1-c1cccc2c1ccn2CS(C)(=O)=O [compound 264] . Its measured Kd is < 20 µM

The molecule identified as CCc1c(-c2cccc3c2ccn3C)[nH]c(C(=O)O)c1-c1ccc(OC)cc1 [compound 108] registered its Kd at > 100 µM

Recorded result, CC(C)c1c(-c2ccc3cc[nH]c3c2)[nH]c(C(=O)O)c1-c1c(Cl)ccc2[nH]ccc12 [compound 182] , Kd: < 20 µM

The reported value for CCc1c(-c2cccc3[nH]ccc23)[nH]c(C(=O)O)c1-c1ccccc1Cl [compound 65] in terms of Kd is < 20 µM

CC(C)c1c(-c2cc(F)cc3[nH]ccc23)[nH]c(C(=O)O)c1-c1cccc2[nH]c(CCS(N)(=O)=O)cc12 [compound 231] has a reported Kd of < 20 µM
